System: HCN channel (hyperpolarization-activated cation current, Ih, in GH3 cells)
Construct: gene Hcn2; native whole-cell current in GH3 pituitary cells; homo- or mixed HCN2+HCN3; PDB 5V4S is only a docking model
experiment: whole-cell patch clamp
Assay type: cell-based
experimental_parameters: Ih at end of 2-s step from -40 to -110 mV; Ca2+-free Tyrode with 1 μM TTX; pH 7.4; 20-25 °C; native GH3 cells
metric: IC50 (µM)

NC(=O)OC[C@@H](O)c1ccccc1Cl | 38
